Source: paper PMC11285948

test: Pharmacokinetics of ciprofol in rats pretreated with psoralen, clopidogrel or CMC; assay type: in vivo, rat; conditions: SD, rat, plasma, iv, 2.4 mg/kg, Control (CMC-Na), ciprofol 2.4 mg·kg^-1 i.v.; rats No.1-8 and Mean; read-out: MRT(0-∞) (converted)
Readout: MRT inf (min)
Answer in min, number only, no unit symbol.

// lookup MRT inf for "CC(C)c1cccc([C@H](C)C2CC2)c1O" 12.9

----------
assay: Pharmacokinetics of ciprofol in rats pretreated with psoralen, clopidogrel or CMC; format: in vivo, rat; settings: SD, rat, plasma, iv, 6.75 mg/kg, Clopidogrel(6.75mg/kg)group, ciprofol 2.4 mg·kg^-1 i.v., T 45.00 min; rats No.1-8 and Mean
Readout: concentration at 45 min
Answer format: number, then unit.

Any idea what its concentration at 45 min is? The compound is CC(C)c1cccc([C@H](C)C2CC2)c1O [ciprofol] 65.7 ng/mL

----------
Items are presented alongside their recorded pIC50.
tested on: ciprofol metabolism in rat liver microsomes (RLMs); test: Effects of psoralen and clopidogrel on ciprofol metabolism in RLM incubation system (substrate elimination, HPLC-MS/MS); type: in vitro ADME; details: 10 min preincubation, n = 3
Formally, pIC50 is defined as -log10 of the concentration c, with c in mol/L.

Smiles Code	Readout	Result
COC(=O)[C@H](c1ccccc1Cl)N1CCc2sccc2C1	pIC50	5.20

Note: attention shifts to another entry.
Which pIC50 is reported with ciprofol metabolism in rat liver microsomes (RLMs) for this entry: "O=c1ccc2cc3ccoc3cc2o1" ? 4.20

----------
assay: Pharmacokinetics of ciprofol in rats pretreated with psoralen, clopidogrel or CMC; type: in vivo, rat; details: SD, rat, plasma, iv, 6.75 mg/kg, Clopidogrel(6.75mg/kg)group, ciprofol 2.4 mg·kg^-1 i.v.; rats No.1-8 and Mean; read-out: MRT(0-t) (converted)
Readout: MRT last
Please append the unit to your numeric answer.

So what does the record say about MRT last for CC(C)c1cccc([C@H](C)C2CC2)c1O [ciprofol] ? 12.6 min

----------
experiment: Pharmacokinetics of ciprofol in rats pretreated with psoralen, clopidogrel or CMC; assay type: in vivo, rat; details: SD, rat, plasma, iv, 27 mg/kg, Psoralen(27mg/kg)group, ciprofol 2.4 mg·kg^-1 i.v., T 2.00 min; rats No.1-8 and Mean
Readout: concentration at 2 min (ng/mL)
Please reply with the bare figure in ng/mL and do not write the unit itself.

Which concentration at 2 min value is on record for "CC(C)c1cccc([C@H](C)C2CC2)c1O" ? 1560

----------
assay: Pharmacokinetics of ciprofol in rats pretreated with psoralen, clopidogrel or CMC; assay type: in vivo, rat; details: SD, rat, plasma, iv, 2.4 mg·kg^-1, Control (CMC-Na), ciprofol 2.4 mg·kg^-1 i.v., T 8.00 min; rats No.1-8 and Mean
Readout: concentration at 8 min (ng/mL)
Report the value in ng/mL with no unit label.

Query: concentration at 8 min; subject: CC(C)c1cccc([C@H](C)C2CC2)c1O [ciprofol] 419
